MEASUREMENT_NAME: MIC (µg/mL)
Answer with a number only, understood to be in µg/mL.

Prompt: Report MIC under test system Shigella dysenteriae JS11910 for "C[C@H]1O[C@H](O[C@@H]2[C@@H](O)[C@H](O[C@H]3O[C@H](CN)CC[C@H]3N)[C@@H](N)C[C@H]2NC(=O)[C@@H](O)CCN)[C@H](O)[C@@H](N)[C@@H]1O" .
Completion: 6.25

Prompt: Tell me MIC of "C[C@H]1O[C@H](O[C@@H]2[C@@H](O)[C@H](O[C@H]3O[C@H](CN)CC[C@H]3N)[C@@H](N)C[C@H]2N)[C@H](O)[C@@H](N)[C@@H]1O" when tested on Shigella dysenteriae JS11910.
Completion: 3.13

Prompt: Please indicate recorded MIC of "C[C@@H]1C[C@H](N)[C@@H](O)[C@@H](O[C@@H]2[C@@H](O)[C@H](O[C@H]3O[C@H](CN)CC[C@H]3N)[C@@H](N)C[C@H]2NC(=O)[C@@H](O)CCN)O1" measured with Shigella dysenteriae JS11910.
Completion: 3.13

Prompt: Report the value of MIC obtained on Shigella dysenteriae JS11910 for NC[C@@H]1CC[C@@H](N)[C@@H](O[C@H]2[C@H](O)[C@@H](O[C@H]3O[C@H](CO)[C@@H](O)[C@H](N)[C@H]3O)[C@H](N)C[C@@H]2N)O1 [DKB, 3',4'-dideoxykanamycin B, reference compound] .
Completion: 3.13

Prompt: # lookup: Shigella dysenteriae JS11910 MIC, key = "C[C@@H]1C[C@H](N)[C@@H](O)[C@@H](O[C@@H]2[C@@H](O)[C@H](O[C@H]3O[C@H](CN)CC[C@H]3N)[C@@H](N)C[C@H]2N)O1"
Completion: 3.13

Reference source: patent US4332794A
